Test system: A. terreus 49
Test: Minimum inhibitory concentration, YAG medium
Format: cell-based, Aspergillus terreus
Conditions: banded MIC grade
Observation Type: MIC grade, A. TERREUS 49, YAG media

Sure, the documented MIC grade, A. TERREUS 49, YAG media for NC1=NN=C(CCCCOCc2ccc(Cl)c(F)c2)CS1 is 4 (4: <0.2 mg/L)

Measured MIC grade, A. TERREUS 49, YAG media, NC1=NN=C(CCCCOCc2ccccc2C(F)(F)F)CS1 : 2 (2: 1-5 mg/L)

Documented MIC grade, A. TERREUS 49, YAG media of COc1ccc(COCCCCC2=NN=C(N)SC2)cc1 : 2 (2: 1-5 mg/L)

MIC grade, A. TERREUS 49, YAG media reading for NC1=NN=C(c2ccc3ccccc3c2)CS1 : 1 (1: ≥5 mg/L)

Lab book: MIC grade, A. TERREUS 49, YAG media of NC1=NN=C(CCCCOCc2ccc(Cl)cc2)CS1 noted as 4 (4: <0.2 mg/L)

# MIC grade, A. TERREUS 49, YAG media of NC1=NN=C(CC(=O)OCc2ccccc2)CS1 = 2 (2: 1-5 mg/L)

Reported MIC grade, A. TERREUS 49, YAG media ( CCCCCCCC1=CSC(N)=NN1 ) = 3 (3: 0.2-1 mg/L)

The recorded MIC grade, A. TERREUS 49, YAG media for entry NC1=NN=C(CCCOc2ccccc2)CS1 equals 3 (3: 0.2-1 mg/L)

compound CCOC(=O)CCCCCC1=NN=C(N)SC1 , MIC grade, A. TERREUS 49, YAG media observed: 4 (4: <0.2 mg/L)

MIC grade, A. TERREUS 49, YAG media for NC1=NN=C(CCOCCOc2ccccc2)CS1 is 4 (4: <0.2 mg/L)

Value of MIC grade, A. TERREUS 49, YAG media reported for the compound COCCOCCC1=NN=C(N)SC1 is 3 (3: 0.2-1 mg/L)

Form: compound = CCCCc1cccc(COCCCCC2=NN=C(N)SC2)c1 ; MIC grade, A. TERREUS 49, YAG media = 2 (2: 1-5 mg/L)

Record summary for NC1=NN=C(CCCCOCc2cccc(Oc3ccccc3)c2)CS1 : reported MIC grade, A. TERREUS 49, YAG media = 1 (1: ≥5 mg/L)

Origin of measurements: patent US20180201592A1
